Assay: Compound B pharmacokinetics after oral administration of a single dose alone (fasting) and with ritonavir (fed), human subjects
Format: in vivo
Conditions: plasma, po, single oral dose 450 mg (active 405 mg) + ritonavir (100 mg every 12 hours for 3 doses), fed, arithmetic mean, read-out: t1/2 (terminal phase plasma half-life) (converted)
Procedure: Nos. 11/008325, filed Dec. 8, 2004, and 60/591,351, filed Jul. 26, 2004, all of which are hereby incorporated by reference for this purpose. A total of 21 human subjects were administered a single 300 mg, 900 mg, 1800 mg, or 3600 mg dose of a spray-dried composition comprising 90 wt % amorphous Compound B and 10 wt % hydroxypropyl methyl cellulose acetate succinate (HPMCAS) under fasting conditions. […]
metric-name: half-life (h)
Numbers only, in h.

So, Cc1c(O)cccc1C(=O)N[C@@H](Cc1ccccc1)[C@H](O)C(=O)N1CC(F)(F)C(C)(C)[C@H]1C(=O)NCC(F)(F)F ? Its half-life was 10.3

// provenance: patent US20050171037A1
